- Test system: MKN-45 (Gastric Adenocarcinoma)
- measurement_notes: Cell viability analysis, gastric cancer MKN-45
- Type: cell-based, human
- recorded_conditions: Homo sapiens, MKN-45, 72 h, read-out: cell viability (survival rate), MKN-45
For each record, write down the corresponding viability at 10 µM.
Give bare numbers, in %.

> print(dat)
                                   compound        measure.name  units.text  readout.value
1   C[N+](C)(C)CCO.[Cl-] [Choline Chloride]  viability at 10 µM           %           99.3
2  Cl.NCCc1ccc(O)c(O)c1 [Dopamine hydrochloride (Inotropin), Dopamine hydrochloride]  viability at 10 µM           %             85
3  O=C([O-])c1ccccc1O.[Na+] [Sodium salicylate]  viability at 10 µM           %           77.9
4  COc1cc(C)c(/C=C/C(C)=C/C=C/C(C)=C/C(=O)O)c(C)c1C  viability at 10 µM           %           78.5

Kindly review the next compound as well.
Suppose we examine the compound CCCCCCCCCCCCCCCC[n+]1ccccc1 [Cetylpyridinium Chloride] ; what viability at 10 µM value has been reported?
47.4
